Taken from the supplement of paper PMC10567573.

B1: EPB41L3 (parent)
chain: KKFLTLGSKFRYSGRTQAQTRRAS

variants of: B1; experiment: protein stability index of a GFP-peptide fusion (GPS, HEK-293T) (PSI 1-6); higher = more stable; settings: c terminus: a fixed tail appended;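 also: lentivirally expressed fusions sorted by FACS into six bins by GFP to DsRed ratio, PSI derived from sequencing read proportions per bin multiplied by bin number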
# cutoff 3 applies to protein stability index; >= gives Condition met, < gives Condition not met

Has KKPLTLGSKFRYSGRTQAQTRRAS [F3P] a recorded protein stability index greater than or equal to 3?
Condition met

Check the entry KKFLTLGSKFRYSLRTQAQTRRAS [G14L] : does protein stability index equal or exceed 3?
Condition met

Reported protein stability index at or above 3? KKFLTLGSKFRTSGRTQAQTRRAS [Y12T]
Condition met

Please indicate if the recorded protein stability index for KKFLTLMSKFRYSGRTQAQTRRAS [G7M] meets or exceeds 3.
Condition not met

Determine whether this variant has protein stability index no lower than 3: KKFLTLGTKFRYSGRTQAQTRRAS [S8T]
Condition not met

For this variant, is measured protein stability index 3 or higher? KKFLTLGSKFRYSGRTQAQTRVAS [R22V]
Condition not met

Dear colleague, could you confirm whether KKFLTLGLKFRYSGRTQAQTRRAS [S8L] has protein stability index at or above 3?
Condition not met

Check this variant for protein stability index at or above 3: KKFLTLGSKFRYSGPTQAQTRRAS [R15P]
Condition not met

Confirm if protein stability index reported for the variant KKFLTLGSLFRYSGRTQAQTRRAS [K9L] is 3 or above.
Condition not met

Is reported protein stability index greater than or equal to 3 here: KKFLTLGSKFRYSGRTQAQTRRAH [S24H]
Condition not met

I'd appreciate it if you could say whether KKFLTNGSKFRYSGRTQAQTRRAS [L6N] has protein stability index at least equal to 3.
Condition met

# check: protein stability index of KKFLTLGSKFRYTGRTQAQTRRAS [S13T] is greater than or equal to 3
Condition not met

I'd appreciate it if you could say whether KKFLTLGSKSRYSGRTQAQTRRAS [F10S] has protein stability index at least equal to 3.
Condition met

// inclusive: protein stability index at least 3? input: KKFLTLGSKYRYSGRTQAQTRRAS [F10Y]
Condition met

Is reported protein stability index greater than or equal to 3 here: KKFLTLGSKFRYSGRTQAQTRRAP [S24P]
Condition not met

Is the recorded value of protein stability index equal to or greater than 3 for this variant? KKFLTLGIKFRYSGRTQAQTRRAS [S8I]
Condition not met

Please tell me: is the variant KQFLTLGSKFRYSGRTQAQTRRAS [K2Q] at or over 3 in terms of protein stability index?
Condition not met

Check if protein stability index >= 3 (inclusive). Item: IKFLTLGSKFRYSGRTQAQTRRAS [K1I]
Condition not met

Record KKFLTLGSKFRYSGRTQAQTRRAK [S24K] ; criterion: protein stability index no lower than 3. Met?
Condition met

Is protein stability index for KKFLTLGSKFRYSGRTQAQTLRAS [R21L] at or above 3?
Condition not met

Test whether the variant KKFLTLHSKFRYSGRTQAQTRRAS [G7H] records protein stability index of 3 or higher.
Condition not met

// inclusive: protein stability index at least 3? input: NKFLTLGSKFRYSGRTQAQTRRAS [K1N]
Condition met

Is the recorded value of protein stability index equal to or greater than 3 for this variant? KKFLTHGSKFRYSGRTQAQTRRAS [L6H]
Condition met

State whether the measured protein stability index reaches 3, counting equality as reaching it, for KKFLTLGSKFRYSGRTVAQTRRAS [Q17V]
Condition not met

Please tell me: is the variant KKFLTLGSKFRYSGRTQAQTYRAS [R21Y] at or over 3 in terms of protein stability index?
Condition not met
